Where these numbers come from: patent US20220396632A1

Readings of % binding of analyte mAb for the listed binders
Molecular target: T1, Recombinant human PSGL-1(ECD)-hFc1 (R&D Systems, Cat. 3345-PS) (human, UniProt Q14242 42-305)
T1 construct: Bought; Gln42-Val295 counted on AAC50061; also called PSGL-1-Fc; PSGL-1-hFc1 chimera; not shown: human IgG1 Fc, Pro100-Lys330
T1 sequence: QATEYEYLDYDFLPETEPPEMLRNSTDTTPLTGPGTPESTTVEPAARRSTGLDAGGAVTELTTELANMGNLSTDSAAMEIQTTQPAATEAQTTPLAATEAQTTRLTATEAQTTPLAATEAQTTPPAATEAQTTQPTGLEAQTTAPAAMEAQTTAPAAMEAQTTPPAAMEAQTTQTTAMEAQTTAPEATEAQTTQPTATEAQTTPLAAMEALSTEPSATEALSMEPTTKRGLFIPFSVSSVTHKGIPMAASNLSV
Assay: Octet tandem; competitor 19N05
Write the answer as a number in %, unit excluded.

1) 19L04 (antibody, IgG4, V domains shown, From mouse immunisation; only variable domains given) VH: QIQLVQSGPELKKPGETVKISCKASGYTFTTYGMSWVKQAPGKGLKWMGWINTYSGVPTYADDFKGRFAFSLETSASTAYLQINNLKIEDTATYFCARHYYGSHYFDYWGQGTTLTVSS VL: DIMMTQSPSSLAMSVGQKVTLRCKSSQSLLNSSNQKNYLAWYQQKPGQSPKLLVYFASTRESGVPVRFIGSGSGTDFTLTISSMQAEDLADYFCQQHYFSPLTFGAGTKLELK : 44.3
2) 19N05 (antibody, V domains shown, From mouse immunisation; only variable domains given) VH: QIQLVQSGPELKKPGETVKISCKASGYTFTTYGMSWVKQAPGKGLKWMGWINTYSGVPTFADDFKGRFAFSLETSASTAYLQINNLKNEDTATFFCARNYYGNHYFDYWGQGTTLTVSS VL: DVQITQSPSYLAASPGETISINCRASNNINKYLAWYQEKPGKTNKLLIYSGSTLQSGIPSRFSGSGSGTDFTLTISSLEPEDFAMYHCQQHNYYPLTFGAGTKLELK : 69.4
3) 15A7 (antibody, V domains shown, Control mAb, recombinant; also called h15A7; 15A17) VH: EVQLVESGGGLVQPGGSLRLSCAASGFTFSSFGMHWVRQAPGKGLEWVAYINGGSSTIFYANAVKGRFTISRDNAKNTLYLQMNSLRAEDTAVYYCARYASYGGGAMDYWGQGTLVTVSS VL: DIQMTQSPSSLSASVGDRVTITCRSSQSIVHNDGNTYFEWYQQKPGKAPKLLIYKVSNRFSGVPSRFSGSGSGTHFTLTISSLQPEDFATYYCFQGSYVPLTFGQGTKVEIK : 46.2

Now consider the entry below.
% binding of analyte mAb for 18F17 (antibody, V domains shown, Non-functional anti-PSGL-1 mAb (Verseau); only variable domains given) VH: QVTLKESGPGILQPSQTLSLTCSFSGFSLSTFGMGVGWIRQPSGKGLEWLAHIWWDDDKYYNPALKSRLTISKDTSKNQVFLKIANVDTADTATYYCAIYYDYGVGFDYWGQGTTLTVSS VL: DIVMTQAAPSVPVTPGESVSISCRSSKSLLHSNGYTFLYWFLQRPGQSPQLLIYRMSNLASGVPDRFSGSGSGTAFTLRISRVEAEDVGVYYCMQHLEYPFTFGTGTKLEIK ?
84.2
